Numbers sourced from patent US20240301039A1.

experimental_system: T1, SARS-CoV-2 C14S,C23S,C73S NSP9 (triSer-NSP9) (SARS-CoV-2, UniProt P0DTC1 4141-4253)
T1 construct: also called NSP (dissolved in ammonium acetate); INS (dissolved in DMSO and diluted in PBS)
T1 chain: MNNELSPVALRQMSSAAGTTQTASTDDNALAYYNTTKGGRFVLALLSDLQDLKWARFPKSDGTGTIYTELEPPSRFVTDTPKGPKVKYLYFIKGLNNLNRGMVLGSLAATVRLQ
assay_remarks: ELISA signal on NSP over uncoated blocked well
observable: NSP/control
Form rule: numeric answer, no unit written next to it.

Below are worked cases with known answers.
>  <binder>
3NSP78 (VHH) VHH: QVQLQESGGGLVQAGGSLRLSCAASGRAFSSYVMGWFRQAPGKEREFVAAIHWTGAATVYVDSVKGRFAISRHNAKNTVYLEMNSLKPEDTAVYYCAADPSGSYWPPKRYDYWGQGTQVTVSS

>  <NSP/control>
47.2

$$$$
>  <binder>
3NSP56 (VHH) VHH: QVQLQESGGGLVQAGGSLRLSCAASGRTFSRYAMGWFRQAPGKERESVAAINWSGTSIFYANSVEGRFTISRDNAKNTVYLQLNSLKPEDTAVYYCAADLVRNYRLGWGDGVYDHYGQGTQVTVSS

>  <NSP/control>
5.47

$$$$
>  <binder>
3NSP29 (VHH) VHH: QVQLQESGGGLVQAGGSLRLSCAASGRTFSRYAMGWFRQAPGKERESVAAINWSGTSIFYANSVEGRFTISRDNAKNTVYLQLNSLKPEDTAVYYCGVVLNGMPYWGRGTQVTVSS

>  <NSP/control>
3.85

$$$$
>  <binder>
2INS45 (VHH) VHH: QVQLQESGGGLVQAGGSLRLSCAASGFTLSSNDMGWYRQAPGKQRELVATITSGLSTNYADSVKGRFTISRDNAKNTVFLQMNSLKIEDTAVYYCEVERGWGPPRDYWGHGTQVTVSS

>  <NSP/control>
45

$$$$
>  <binder>
2INS64 (VHH) VHH: QVQLQESGGGLVQVGGSLRLSCAASGSILSINAMGWYRQAPGKQRELVAAITSGGSTNYADSVKGRFTISRDNAKNMLYLQMNSLKPEDTAVYYCHVVTGWGPLDWGQGTQVTVSS

>  <NSP/control>
45.2

$$$$

# ---- query binder ----
I have this binder here, 2INS69 (VHH) VHH: QVQLQESGGGLVRAGDSLRLSCAVSGRTFSSVAMGWFRQAPGKEREFVAFISGSTGSVTYYADSVKGRFAISRDNAKNTVYLQMNSLKPEDTAVYDCAAKFTGTFNYQGLYDYWGQGTQVTVSS , and I need its recorded NSP/control. 13.8
